FYI, the data here is from the supplement of paper PMC10567573.

B1: SNAP91 (parent)
chain: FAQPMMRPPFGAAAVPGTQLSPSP

- Variants of: B1
- procedure.summary: protein stability index of a GFP-peptide fusion (GPS, HEK-293T) (PSI 1-6); higher = more stable;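 note: lentivirally expressed fusions sorted by FACS into six bins by GFP to DsRed ratio, PSI derived from sequencing read proportions per bin multiplied by bin number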
- run.conditions: c terminus: a fixed tail appended
measured.attribute: protein stability index
Lab note: jot the number down without any unit.

Illustrative cases are given below, each with its answer.
P8F: 2.97
S21E: 2.98
T18M: 2.95
F10G: 4.2

Report protein stability index, nothing else, for this variant: `G11W`
1.88

Provide protein stability index value for the following variant: `P8E`
3.75

Entry `M5C` needs its protein stability index filled in; supply it.
2.68

Please report the measured protein stability index for `V15M`
3.01

Specify reported protein stability index for the variant shown: `P9K`
2.71

Give a short answer stating reported protein stability index for `S21G` .
3.28

Check the records and state protein stability index for `M6I`
3.77

// Input: `F1Y` . Output its protein stability index only.
2.24
